- System: PC-3 prostate
- Test name: NCI-60 one-dose screen, 48 h (100 = growth as untreated, 0 = no growth, -100 = all killed)
- Experimental parameters: 10 µM unless noted
This is part of a sample that, as a whole, favours compounds with a hit. Of some 83,000 tested, about 20% had one in any assay.
Observable: growth (%)
Reply numerically in %, unit not repeated.

Consider the following illustrative entries.
[[record]]
smiles_data = "COc1ccc(-c2ccc3c4c(cccc24)C(=O)N(N2C(=O)c4cccc5cccc(c45)C2=O)C3=O)cc1"
observable = "growth"
meas_value = 87.7

[[record]]
smiles_data = "COc1ccc(NS(=O)(=O)c2ccc(-c3cnc(C4CC4)o3)cc2)cc1Cl"
observable = "growth"
meas_value = 25.2

[[record]]
smiles_data = "COc1cc(OC)c(S(N)(=O)=O)cc1C(=O)/C=C/c1ccccc1"
observable = "growth"
meas_value = 32.9

[[record]]
smiles_data = "N#C/C(=C\\c1ccc(-c2ccc(F)cc2)o1)C(=O)Nc1ncc(Cc2ccc(Cl)cc2Cl)s1"
observable = "growth"
meas_value = 1.25

[[record]]
smiles_data = "COc1c([C@@H](CC(C)C)OC(C)=O)ccc2c1C(=O)OCc1cc(C)cc(O)c1O2"
observable = "growth"
meas_value = 29.8

[[record]]
smiles_data = "C#C[C@]1(O)CC[C@H]2[C@@H]3CC=C4c5sc(C6CCOCC6)nc5CC[C@]4(C)[C@H]3CC[C@@]21C"
observable = "growth"
meas_value = 63.2

[[record]]
smiles_data = "Cn1nc(Nc2ccccc2)c(C(=O)NN)c1N"
observable = "growth"
meas_value = 95.1

[[record]]
smiles_data = "COc1ccc(Cn2cc3c(c2-c2cc(OC)c(OC)c(OC)c2)CCCc2cnoc2-3)cc1N"
observable = "growth"
meas_value = 35.5


Assign growth to the following record: Cc1ccc(/C=C/CC(=O)Nc2ccc(C(=O)Nc3ccc(F)cc3N)cc2)cn1 53

Please give the documented growth of COc1ccc(-c2nc3cc(Cl)c(Cl)cc3n2CC(=O)N=Nc2c(O)[nH]c3ccc(Cl)cc23)cc1 37.6

Check the records and state growth for C#C[C@]1(O)CC[C@H]2[C@@H]3CC=C4c5sc(Nc6ccc(OC)nc6)nc5CC[C@]4(C)[C@H]3CC[C@@]21C 29.9

Give reported growth value for COc1ccc([C@@H]2[C@@H](O)C(=O)N2c2cc(OC)c(OC)c(OC)c2)cc1 16.2

Determine from records and report growth for Oc1ccc(-c2nnc(SCc3ccc(O)c4ncccc34)o2)cc1 9.97

State, in one line, measured growth of COc1ccc([C@@H]2[C@@H](O)C(=O)N2c2cc(OC)c(OC)c(OC)c2)cc1Cl 17.5

Tell us which growth value is on record for COc1ccc2c(c1)oc1c3[nH]c4ccccc4c3c3c(c21)C(=O)N(O)C3=O 45.4
